Here, each record is paired with measured IC50 data.
- assayedSystem: HIF-PH2 (EGLN1) (Homo sapiens (Human), UniProt Q9GZT9)
- Sequence (Q9GZT9 whole entry): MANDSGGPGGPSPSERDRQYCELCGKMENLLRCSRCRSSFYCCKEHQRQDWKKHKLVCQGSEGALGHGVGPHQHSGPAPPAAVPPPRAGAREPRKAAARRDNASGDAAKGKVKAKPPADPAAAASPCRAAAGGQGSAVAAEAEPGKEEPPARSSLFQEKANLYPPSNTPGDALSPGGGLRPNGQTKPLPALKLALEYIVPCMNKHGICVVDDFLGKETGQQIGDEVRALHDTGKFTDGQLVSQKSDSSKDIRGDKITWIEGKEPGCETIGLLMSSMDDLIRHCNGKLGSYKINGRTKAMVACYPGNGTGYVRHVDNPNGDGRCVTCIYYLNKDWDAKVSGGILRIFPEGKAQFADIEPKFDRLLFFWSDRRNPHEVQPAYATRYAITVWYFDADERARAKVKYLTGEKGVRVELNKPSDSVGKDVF
- protocolDescription: HIF-PH assay (14CO2 capture, peptide-dependent turnover)
- Format: biochemical
- protocolConditions: enzyme inhibition against HIF-PH2; peptide-dependent percent turnover
Write it as a number; the unit µM goes unstated.

O=C(O)CCNC(=O)c1nc(-c2ccncc2)c2c(cc(-c3ccccc3)c(=O)n2CC2CCCCC2)c1O : 200
Cc1ccc(-c2nc(C(=O)NCCC(=O)O)c(O)c3cc(-c4ccccc4)c(=O)n(Cc4ccccc4)c23)cn1 : 176
C[C@@H](c1ccccc1)n1c(=O)c(-c2ccccc2)cc2c(O)c(C(=O)NCCC(=O)O)nc(-c3cccnc3)c21 : 200
N#Cc1nc(C(=O)NCc2ccncc2)c(O)c2ccn(Cc3ccccc3)c(=O)c12 : 195
N#Cc1nc(C(=O)NCC2(C(=O)O)CCC2)c(O)c2ccn(Cc3ccccc3)c(=O)c12 : 182

Q) Consider the molecule shown here: O=C(O)CCNC(=O)c1ncc2ccn(Cc3ccccc3)c(=O)c2c1O What is its recorded IC50?
A) 181

Q) Which measured IC50 value corresponds to CN(CCNC(=O)c1nc(-c2ccccc2)c2c(cc(-c3ccccc3)c(=O)n2Cc2ccccc2)c1O)S(C)(=O)=O ?
A) 200

Q) Please look up its IC50: O=C(NCc1nnn[nH]1)c1ncc2ccc(=O)n(Cc3ccccc3)c2c1O
A) 138

Q) Which IC50 reading was recorded for the molecule CC(=O)NCCNC(=O)c1nc(C#N)c2ccc(=O)n(Cc3ccccc3)c2c1O ?
A) 134

// provenance: patent US8921389B2
